assay_system: T1, SLC2A1 pseudotyped VLPs (UniProt P11166 1-492)
T1 chain: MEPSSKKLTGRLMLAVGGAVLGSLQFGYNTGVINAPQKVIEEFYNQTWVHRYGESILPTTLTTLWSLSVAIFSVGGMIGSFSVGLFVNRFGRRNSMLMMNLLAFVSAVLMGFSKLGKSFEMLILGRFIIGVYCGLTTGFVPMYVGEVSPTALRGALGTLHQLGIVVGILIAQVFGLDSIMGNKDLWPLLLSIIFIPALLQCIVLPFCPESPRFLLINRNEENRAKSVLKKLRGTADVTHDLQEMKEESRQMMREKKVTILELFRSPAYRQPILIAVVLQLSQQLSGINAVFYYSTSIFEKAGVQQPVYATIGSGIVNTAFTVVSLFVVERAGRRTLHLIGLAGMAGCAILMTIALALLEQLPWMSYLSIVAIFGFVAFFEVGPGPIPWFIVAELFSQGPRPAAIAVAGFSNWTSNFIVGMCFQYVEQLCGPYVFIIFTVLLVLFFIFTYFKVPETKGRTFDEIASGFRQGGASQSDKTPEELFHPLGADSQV
measurement_notes: ELISA
property_name: pEC50
# reply with the number alone; pEC50 is -log10 of concentration in mol/L

Recorded pEC50, per entry:
binder="5G5 #30 (antibody, V domains shown) VH: AVTLDESGGGLQTPGGALSLVCKASGFTFSSHAIFWVRQAPDKGLEFVAAISSSSGSWTAYATVVKGRATISRDNGQSTVRLQLNNLRAEDTGTYYCAKAAGSACCYAGSIDAWGHGTEVIVSS VL: ALTQPSSVSANPGETVKITCSGGSGSSYYGWYQQKSPGSAPVTVIYYDDKRPSDIPSRFSGSKSGSTATLTITGVQVEDEAVYYCGTGDGSIAIFGAGTTLTVL" number=8.92
binder="2A2 #12 (antibody, V domains shown) VH: AVTLDESGGGLQTPGGALSLVCKGSGFTFSTKGMMWVRQAPGKGLEWVAGISSMSRYTYYAPAVKGRATISRDNGQSAVRLQLSSLRAEDTGTYYCARDATYCSWTASTCGWSGGTIDAWGHGTEVIVSS VL: ALTQPSSVSANPGETVKITCSGGYSYYGTYYYSWYQQKSPGSAPVTLIYRNDKRPSDIPSRFSGSGSGSTSTLTITGVQAEDEAVYFCGSYDSSDSGIFGAGTTLTVL" number=8.54
binder="6F12 #33 (antibody, V domains shown) VH: AVTLDESGGGLQTPGGALSLVCKASGFTFSDHAIFWVRQAPDKGLEFVAAISSGTGSWTAYATVVKGRATISRDNGQSTVRLQLNNLRAADTATYYCAKGAGSACCYAGSIDAWGHGTEVIVSS VL: ALTQPSSVSANPGETVKITCSGGSSSSYYGWYQQKSPGSAPVTLIYYNDKRPSDIPSRFSGSKSGSTATLTITGVQVEDEAVYYCGTGDGSFAIFGAGTTLTVL" number=9.22
binder="2E5 #22 (antibody, V domains shown) VH: AVTLDESGGGLQTPGGALSLVCKASGFTFSTKGMGWVRQTPGKGLEWVAGISSMRRYTYYAPAVKGRATISRDNGQSTVRLQLSSLRAEDSGTYYCARDATYCSWTTSTCGWSGGTIDAWGHGTEVIVSS VL: ALTQPSSVSANLGGTVKITCSGGSGNYGWYQQKSPGSVPVTVIYSNDKRPSDIPSRFSGSGSGSTATLTITGVQVEDEAVYFCGSRDSSYVGLFGAGTTLTVL" number=9.30
binder="7C3 #39 (antibody, V domains shown) VH: AVTLDESGGGLQTPGGALSLVCKASGFTFSTKGMGWVRQTPGKGLEWVAGISSMRRYTYYAPAVKGRATISRDNGQSTVRLQLSSLRAEDSGTYYCARDATYCSWTTSTCGWSGGTIDAWGHGTEVIVSS VL: ALTQPSSVSANLGGTVKITCSGGGSSSYYGWYQQKSPGSAPVTVIYGNDRRPSDIPSRFSGSASGSTATLTITGVQAEDEAVYFCGSADSSDSGSGIFGAGTTLTVL" number=8.85

Please turn your attention to the following entry.
State, in one line, measured pEC50 of 1G2 #9 (antibody, V domains shown) VH: AVTLDESGGGLQTPGGALSLVCKASGFTFSTKGMGWVRQTPGKGLEWVAGISSMRRYTYYAPAVKGRATISRDNGQSTVRLQLSSLRAEDSGTYYCARDATYCSWTTSTCGWSGGTIDAWGHGTEVIVSS VL: ALTQPSSVSANPGETVKITCSGSSGSYGWYQQKSPGSAPVTVIYWDDERPSGIPSRFSGSASGSTATLTITGVQAEDEAVYFCGSIDSSVGYVGIFGAGTTLTVL
8.39
